# solubility per record follows
- Experiment Summary: Solubility of the compound in water at pH 7 by UV-vis spectrophotometric analysis
- Type: physicochemical

Compound: CO[C@H]1/C=C/O[C@@]2(C)Oc3c(C)c(O)c4c(O)c(c(CN5CCN(Cc6c(C)cc(C)cc6C)CC5)c(O)c4c3C2=O)NC(=O)/C(C)=C\C=C\[C@H](C)[C@H](O)[C@@H](C)[C@@H](O)[C@@H](C)[C@H](OC(C)=O)[C@@H]1C
solubility: < 300 µg/mL
//
Compound: CO[C@H]1/C=C/O[C@@]2(C)Oc3c(C)c(O)c4c(O)c(c(CN5CCN(c6ccncc6)CC5)c(O)c4c3C2=O)NC(=O)/C(C)=C\C=C\[C@H](C)[C@H](O)[C@@H](C)[C@@H](O)[C@@H](C)[C@H](OC(C)=O)[C@@H]1C
solubility: < 50 µg/mL
//
Compound: CO[C@H]1/C=C/O[C@@]2(C)Oc3c(C)c(O)c4c(O)c(c(CNC5CCN(CC(=O)O)CC5)c(O)c4c3C2=O)NC(=O)/C(C)=C\C=C\[C@H](C)[C@H](O)[C@@H](C)[C@@H](O)[C@@H](C)[C@H](OC(C)=O)[C@@H]1C
solubility: > 100000 µg/mL
//
Compound: CO[C@H]1/C=C/O[C@@]2(C)Oc3c(C)c(O)c4c(O)c(c(CN5CCN(c6ncccc6C(F)(F)F)CC5)c(O)c4c3C2=O)NC(=O)/C(C)=C\C=C\[C@H](C)[C@H](O)[C@@H](C)[C@@H](O)[C@@H](C)[C@H](OC(C)=O)[C@@H]1C
solubility: < 50 µg/mL
//
Compound: CO[C@H]1/C=C/O[C@@]2(C)Oc3c(C)c(O)c4c(O)c(c(/C=N/NC5=NCCN5)c(O)c4c3C2=O)NC(=O)/C(C)=C\C=C\[C@H](C)[C@H](O)[C@@H](C)[C@@H](O)[C@@H](C)[C@H](OC(C)=O)[C@@H]1C
solubility: 4250 µg/mL
//
Compound: CO[C@H]1/C=C/O[C@@]2(C)Oc3c(C)c(O)c4c(O)c(c(CNC56CC7CC(CC(C7)C5)C6)c(O)c4c3C2=O)NC(=O)/C(C)=C\C=C\[C@H](C)[C@H](O)[C@@H](C)[C@@H](O)[C@@H](C)[C@H](OC(C)=O)[C@@H]1C
solubility: < 50 µg/mL
//
Compound: CO[C@H]1/C=C/O[C@@]2(C)Oc3c(C)c(O)c4c(O)c(c(CNCCN5CCCC5=O)c(O)c4c3C2=O)NC(=O)/C(C)=C\C=C\[C@H](C)[C@H](O)[C@@H](C)[C@@H](O)[C@@H](C)[C@H](OC(C)=O)[C@@H]1C
solubility: 100 µg/mL
//
Compound: CO[C@H]1/C=C/O[C@@]2(C)Oc3c(C)c(O)c4c(O)c(c(/C=N/N5CCOCC5)c(O)c4c3C2=O)NC(=O)/C(C)=C\C=C\[C@H](C)[C@H](O)[C@@H](C)[C@@H](O)[C@@H](C)[C@H](OC(C)=O)[C@@H]1C
solubility: < 50 µg/mL
//
Compound: CO[C@H]1/C=C/O[C@@]2(C)Oc3c(C)c(O)c4c(O)c(c(CN5CCN(C(c6ccc(F)cc6)c6ccc(F)cc6)CC5)c(O)c4c3C2=O)NC(=O)/C(C)=C\C=C\[C@H](C)[C@H](O)[C@@H](C)[C@@H](O)[C@@H](C)[C@H](OC(C)=O)[C@@H]1C
solubility: < 50 µg/mL
//
Compound: CO[C@H]1/C=C/O[C@@]2(C)Oc3c(C)c(O)c4c(O)c(c(CNC5CCCNC5=O)c(O)c4c3C2=O)NC(=O)/C(C)=C\C=C\[C@H](C)[C@H](O)[C@@H](C)[C@@H](O)[C@@H](C)[C@H](OC(C)=O)[C@@H]1C (some centres not stated)
solubility: 210 µg/mL
//
Compound: CO[C@H]1/C=C/O[C@@]2(C)Oc3c(C)c(O)c4c(O)c(c(/C=N/N5CCCCC5)c(O)c4c3C2=O)NC(=O)/C(C)=C\C=C\[C@H](C)[C@H](O)[C@@H](C)[C@@H](O)[C@@H](C)[C@H](OC(C)=O)[C@@H]1C
solubility: < 300 µg/mL
//
Compound: CO[C@H]1/C=C/O[C@@]2(C)Oc3c(C)c(O)c4c(O)c(c(/C=N/Nc5ccccc5)c(O)c4c3C2=O)NC(=O)/C(C)=C\C=C\[C@H](C)[C@H](O)[C@@H](C)[C@@H](O)[C@@H](C)[C@H](OC(C)=O)[C@@H]1C
solubility: < 50 µg/mL
